Data provenance: patent US5430062A

Listed molecules paired with reported pIC50
- System: MCF-7 breast carcinoma
- test_details: MTT cytotoxicity assay, MCF-7
- experimental_context: Homo sapiens, MCF7, […], read-out: Cytotoxicity ED50, MCF-7
Formally, pIC50 is defined as -log10 of the concentration c, with c in mol/L.

These solved cases illustrate the format of a correct answer.
[[record]]
structure = "COc1ccc(CCc2cc(OC)c(OC)c(OC)c2)cc1"
measurement_kind = "pIC50"
observed = 9.80

[[record]]
structure = "COc1cc(/C=C/c2ccc(Br)cc2)cc(OC)c1OC"
measurement_kind = "pIC50"
observed = 5.04


# input I would be grateful if you could share the reported pIC50 for COc1cc(CCc2ccc(N)cc2)cc(OC)c1OC .
# output 4.93

# input I would be grateful if you could share the reported pIC50 for COc1cc(/C=C\c2ccccc2)cc(OC)c1OC .
# output 6.60
